# System: Escherichia coli TOP10
# ASSAY COMMENT: shrunken log2 fold change of peptide-encoding DNA abundance (4.5 h post-induction vs induction); higher = less antimicrobial activity (less host growth inhibition)
# ASSAY SETUP: time post-induction: 4.5 h; library: site-saturation at positions 5, 18, 19, 20
Would you mind labelling by shrunken log2 fold change? At or over -0.02 is Satisfied, under is Not satisfied.

Determine whether this sequence has shrunken log2 fold change no lower than -0.02: `RRIRERPPRLPRPRPRPRRSPRP` Not satisfied

Determine whether this sequence has shrunken log2 fold change no lower than -0.02: `RRIRARPPRLPRPRPRPTIGPRP` Satisfied

Determine whether this sequence has shrunken log2 fold change no lower than -0.02: `RRIRTRPPRLPRPRPRPKCEPRP` Satisfied

Determine whether this sequence has shrunken log2 fold change no lower than -0.02: `RRIRVRPPRLPRPRPRPLMTPRP` Not satisfied

Determine whether this sequence has shrunken log2 fold change no lower than -0.02: `RRIRGRPPRLPRPRPRPFSHPRP` Not satisfied

Determine whether this sequence has shrunken log2 fold change no lower than -0.02: `RRIRMRPPRLPRPRPRPVTFPRP` Satisfied

Determine whether this sequence has shrunken log2 fold change no lower than -0.02: `RRIRDRPPRLPRPRPRPHDDPRP` Satisfied

Determine whether this sequence has shrunken log2 fold change no lower than -0.02: `RRIRPRPPRLPRPRPRPVDSPRP` Not satisfied

---

# Tested on: Escherichia coli TOP10;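 also: peptides expressed intracellularly from a pBAD plasmid library in pooled LB shake-flask culture, induced with 0.3% L-arabinose, DNA abundance read by NGS, three biological replicates, DESeq2 with apeglm shrinkage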
# ASSAY COMMENT: shrunken log2 fold change of peptide-encoding DNA abundance (4.5 h post-induction vs induction); higher = less antimicrobial activity (less host growth inhibition)
# ASSAY SETUP: time post-induction: 4.5 h; library: site-saturation at positions 5, 18, 19, 20
Would you mind labelling by shrunken log2 fold change? At or over -0.1 is label 1, under is label 0.

Determine whether this sequence has shrunken log2 fold change no lower than -0.1: `RRIRKRPPRLPRPRPRPQMEPRP` label 1

Determine whether this sequence has shrunken log2 fold change no lower than -0.1: `RRIRKRPPRLPRPRPRPRDKPRP` label 1

Determine whether this sequence has shrunken log2 fold change no lower than -0.1: `RRIRIRPPRLPRPRPRPHDKPRP` label 0

Determine whether this sequence has shrunken log2 fold change no lower than -0.1: `RRIRARPPRLPRPRPRPQVNPRP` label 0

Determine whether this sequence has shrunken log2 fold change no lower than -0.1: `RRIRVRPPRLPRPRPRPKQCPRP` label 0

Determine whether this sequence has shrunken log2 fold change no lower than -0.1: `RRIRDRPPRLPRPRPRPSRYPRP` label 0

Determine whether this sequence has shrunken log2 fold change no lower than -0.1: `RRIRWRPPRLPRPRPRPEISPRP` label 0

Determine whether this sequence has shrunken log2 fold change no lower than -0.1: `RRIRMRPPRLPRPRPRPYHFPRP` label 0

Determine whether this sequence has shrunken log2 fold change no lower than -0.1: `RRIRNRPPRLPRPRPRPFMHPRP` label 0

Determine whether this sequence has shrunken log2 fold change no lower than -0.1: `RRIRGRPPRLPRPRPRPRACPRP` label 1

Determine whether this sequence has shrunken log2 fold change no lower than -0.1: `RRIRVRPPRLPRPRPRPCHQPRP` label 0

Determine whether this sequence has shrunken log2 fold change no lower than -0.1: `RRIRVRPPRLPRPRPRPVDLPRP` label 1

Determine whether this sequence has shrunken log2 fold change no lower than -0.1: `RRIRKRPPRLPRPRPRPCVVPRP` label 1

Determine whether this sequence has shrunken log2 fold change no lower than -0.1: `RRIRSRPPRLPRPRPRPKWDPRP` label 1
